Taken from patent US20240226106A1.

Kindly supply the reported EC50 values for the records listed here.
Study target: human activated kallikrein enzyme (Homo sapiens, UniProt P03952)
Sequence (P03952 391-638 limits assumed): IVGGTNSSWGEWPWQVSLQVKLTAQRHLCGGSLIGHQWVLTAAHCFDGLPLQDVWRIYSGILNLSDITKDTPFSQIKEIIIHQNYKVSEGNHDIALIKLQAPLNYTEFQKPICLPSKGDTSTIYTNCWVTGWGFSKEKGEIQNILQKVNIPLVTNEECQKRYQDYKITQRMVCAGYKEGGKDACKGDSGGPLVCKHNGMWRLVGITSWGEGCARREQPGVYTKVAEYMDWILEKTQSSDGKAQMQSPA
Sequence (P03952 20-390 partner limits assumed): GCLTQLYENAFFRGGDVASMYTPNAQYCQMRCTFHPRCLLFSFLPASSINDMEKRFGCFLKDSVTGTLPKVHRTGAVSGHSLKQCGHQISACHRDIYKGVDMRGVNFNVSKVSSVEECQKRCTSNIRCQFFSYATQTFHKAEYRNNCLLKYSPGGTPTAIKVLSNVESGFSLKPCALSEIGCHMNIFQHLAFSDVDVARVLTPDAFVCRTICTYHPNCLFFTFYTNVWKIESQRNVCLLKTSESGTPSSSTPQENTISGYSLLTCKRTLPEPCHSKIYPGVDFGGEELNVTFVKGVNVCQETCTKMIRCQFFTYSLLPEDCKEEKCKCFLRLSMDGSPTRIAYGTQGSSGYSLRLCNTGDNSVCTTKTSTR
Method description: Inhibition of human activated plasma kallikrein, fluorogenic peptide substrate (PFR-AMC), 500 pM enzyme format
Measurement setup: 500 pM activated kallikrein, 30 min preincubation, 10 min reaction, room temperature, read-out: Primary Dose Response Assay: Average EC50

O=C(Nc1cc(OCc2ccc(Cn3cccn3)cc2)cnn1)[C@H]1C[C@@H]1c1cccc(Cl)c1 (racemic) | 2.5 to 25 nM

List reported EC50 for each of these compounds:
1. CN1CCN(c2cc(C3CC3)cc3cc(CNc4ccnc(NC(=O)[C@H]5C[C@@H]5c5cccc(Cl)c5)c4)nn23)CC1
2. O=C(Nc1cc(NCc2nc3c(N4CCOC4=O)cc(C4CC4)cn3n2)ncn1)[C@H]1C[C@@H]1c1cccc(Cl)c1

1: < 2.5 nM; 2: 2.5 to 25 nM

State the recorded EC50 for this entry: Cc1ccnc([C@H]2C[C@@H]2C(=O)Nc2cc(N(C)Cc3cn4cc(C5CC5)nc(N5CCCC5=O)c4n3)ncn2)n1 < 2.5 nM

----------
Study target: human activated kallikrein enzyme (Homo sapiens, UniProt P03952)
Method description: Inhibition of human activated plasma kallikrein, fluorogenic peptide substrate (PFR-AMC), 500 pM enzyme format
Measurement setup: 500 pM activated kallikrein, 30 min preincubation, 10 min reaction, room temperature, read-out: Primary Dose Response Assay: Average EC50
pEC50: −log10 of the molar value.
Measured property: pEC50

List reported pEC50 for each of these compounds:
1. Nc1ncccc1[C@H]1C[C@@H]1C(=O)Nc1cc(OCc2ccc(Cn3cccn3)cc2)cnn1 (racemic)
2. Cc1ccnc([C@H]2C[C@@H]2C(=O)Nc2nc(C)nc(OCc3cn4cc(C5CC5)nc(N5CC(=O)N(C)C5=O)c4n3)n2)n1
3. O=C(Nc1cc(N2C[C@@H](O)C[C@@H]2c2cn3nc(C4CC4)ccc3n2)ncn1)[C@H]1C[C@@H]1c1cccc(Cl)c1
4. O=C(Nc1cc(NCc2nc3ccc(C4CC4)cn3n2)ccn1)[C@H]1C[C@@H]1c1cccc(Cl)c1
5. Cc1ccnc([C@H]2C[C@@H]2C(=O)Nc2nncc(N[C@H](C)c3cc4cc(C5CC5)cc(N5CC6CC6C5=O)n4n3)n2)n1 (some centres unmarked)

1. 6.30 to 7.60
2. > 8.60
3. 7.60 to 8.60
4. > 8.60
5. > 8.60

List reported pEC50 for each of these compounds:
1. Cc1ccnc([C@H]2C[C@@H]2C(=O)Nc2cc(NCc3cc4cc(C5CC5)cc(N5CC(=O)N(C)C5=O)n4n3)ncn2)n1
2. O=C(Nc1cc(OCc2ccc(Cn3ccc(C4CC4)n3)cc2)cnn1)[C@H]1C[C@@H]1c1cccc(Cl)c1 (racemic)
3. N#Cc1ccc(Cl)cc1[C@H]1C[C@@H]1C(=O)Nc1cc(NCc2cn3cc(C4CC4)cnc3n2)ccn1 (racemic)
4. CC(C)(O)CCc1cc(C2CC2)cc2cc(CNc3cc(NC(=O)[C@H]4C[C@@H]4c4cccc(Cl)c4)ncn3)nn12
5. Cc1ccnc([C@H]2C[C@@H]2C(=O)Nc2cc(N3C[C@@H](O)C[C@H]3c3ccc(N4CC5CC5C4)nc3)ncn2)n1 (mixture of isomers)
6. O=C(Nc1cc(OCc2ccc(Cn3cccn3)cc2)cnn1)[C@H]1C[C@@H]1c1cn[nH]c1 (racemic)
7. O=C(Nc1cc(NCc2cnc3ccc(C4CC4)cc3c2)ccn1)[C@H]1C[C@@H]1c1cccc(Cl)c1

1. > 8.60
2. < 6.30
3. > 8.60
4. 7.60 to 8.60
5. < 6.30
6. < 6.30
7. 7.60 to 8.60

List reported pEC50 for each of these compounds:
1. Cc1ccnc([C@H]2C[C@@H]2C(=O)Nc2cc(OCc3cc4cc(C5CC5)cc(N5CC(=O)N(C)C5=O)n4n3)cnn2)n1
2. CC(C)Oc1nccc2nc(CNc3cc(NC(=O)[C@H]4C[C@@H]4c4cccc(Cl)c4)ncn3)cn12

1. > 8.60
2. < 6.30
